- measured_on: T1, human SIRP-α v2 (human)
- T1 construct: also called Human v2; Human V2
- assay_method_text: SPR, antibody on GLC chip
measured_property: Kd (nM)
Give bare numbers, in nM.

{"binder": "antibody 119 (antibody, V domains shown, also called AB119; S119) VH: DVQLLESGGGVVQPGGSLRLSCAASGFSFSNFAMTWVRQAPGEGLEWVSTIGSGDTYYADSVKGRFTISRDNSKNTLYLQMNSLRAEDTAVYYCAKDSTVSWSGDFFDYWGLGTLVTVSS VL: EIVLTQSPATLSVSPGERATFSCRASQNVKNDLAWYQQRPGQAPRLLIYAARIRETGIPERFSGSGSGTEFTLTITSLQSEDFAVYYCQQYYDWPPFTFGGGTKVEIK", "Kd (nM)": 0.0682}
{"binder": "antibody 119 variant, light chain wt / heavy chain Mut (antibody, human IgG1, V domains shown) VH: EVQLLESGGGVVQPGGSLRLSCAASGFSFSNFAVTWVRQAPGKGLEWVSTIGSGDTYYADSVKGRFTISRDNSKNTLYLQMNSLRAEDTAVYYCAKDSTVSWSGDFFDYWGQGTLVTVSS VL: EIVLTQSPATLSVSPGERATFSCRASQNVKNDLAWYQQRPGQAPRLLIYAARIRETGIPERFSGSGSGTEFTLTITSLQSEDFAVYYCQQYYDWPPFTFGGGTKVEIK", "Kd (nM)": 0.0694}
{"binder": "antibody 119 variant, light chain Mut / heavy chain Mut (antibody, V domains shown) VH: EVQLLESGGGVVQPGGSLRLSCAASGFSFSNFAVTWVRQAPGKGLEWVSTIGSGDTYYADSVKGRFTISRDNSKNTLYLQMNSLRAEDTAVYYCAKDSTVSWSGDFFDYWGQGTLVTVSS VL: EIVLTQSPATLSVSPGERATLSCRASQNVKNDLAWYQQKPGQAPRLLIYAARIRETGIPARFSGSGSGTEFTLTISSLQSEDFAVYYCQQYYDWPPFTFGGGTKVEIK", "Kd (nM)": 0.0875}
{"binder": "antibody 136 variant, light chain wt / heavy chain Mut (antibody, V domains shown) VH: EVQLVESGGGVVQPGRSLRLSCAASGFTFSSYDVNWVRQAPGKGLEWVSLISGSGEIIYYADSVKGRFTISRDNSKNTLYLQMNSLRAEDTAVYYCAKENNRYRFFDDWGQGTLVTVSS VL: ETVLTQSPGTLTLSPGERATLTCRASQSVYTYLAWYQEKPGQAPRLLIYGASSRATGIPDRFSGSGSGTEFTLTISSLQSEDFAVYYCQQYYDRPPLTFGGGTKVEIK", "Kd (nM)": 1.74}

Then there is this binder:
Returns the measured Kd for the input binder. Input: antibody 136 variant, light chain Mut_I2T / heavy chain Mut (antibody, V domains shown) VH: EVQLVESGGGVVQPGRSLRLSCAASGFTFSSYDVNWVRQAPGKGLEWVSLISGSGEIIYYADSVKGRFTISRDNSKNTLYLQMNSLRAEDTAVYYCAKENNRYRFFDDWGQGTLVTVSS VL: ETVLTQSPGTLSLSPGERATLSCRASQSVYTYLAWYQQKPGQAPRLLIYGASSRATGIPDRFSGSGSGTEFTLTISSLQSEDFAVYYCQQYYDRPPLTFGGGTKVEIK 1.86
